Assay Details: growth effects on S. cerevisiae YJM789 – YJM789 clinical isolate, OD600, 24 h, basal, primary screen (AID 1089);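 further: growth of clinical yeast isolate S. cerevisiae YJM 789 seeded 1000 cells per well; test concentration not given here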
Measurement Conditions: higher = more signal, called active from +8 up or from −8 down
Using z-score as the sorting value, the categories are group A: < -0.3; group B: ≥ -0.3 and < 0.5; group C: ≥ 0.5

Example results:
COCCOC(=O)N1C(=O)[C@@]2(c3cc(C#CCC(C(=O)OC)C(=O)OC)ccc31)[C@H](c1ccccc1OCCO)N1[C@H](c3ccccc3)[C@H](c3ccccc3)OC(=O)[C@H]1[C@@H]2C(=O)Nc1nc2ccccc2s1 = group A
O=C1O[C@H](c2ccccc2)[C@H](c2ccccc2)N2[C@H]1[C@@H](C(=O)N1CCCCCCC1)[C@]1(C(=O)Nc3ccc(C#CC4=CCCCC4)cc31)[C@H]2c1ccc(O)cc1 = group B
CO[C@H]1O[C@H](CO)[C@@H](OC(=O)Nc2ccccc2-c2ccccc2)[C@H](OC(=O)Nc2ccccc2-c2ccccc2)[C@H]1OC(=O)Nc1ccccc1-c1ccccc1 = group C
COCCOC(=O)N1C(=O)[C@@]2(c3cc(C#CCCO)ccc31)[C@H](C(=O)NC[C@H](O)c1ccccc1)[C@H]1C(=O)O[C@H](c3ccccc3)[C@H](c3ccccc3)N1[C@@H]2c1ccc(OCCO)cc1 = group C
C=C[C@@H](C)[C@@H](OC(=O)Nc1ccc(OC)cc1)c1ccc(O)c2ccccc12 = group A

**Query** Could you place C=C[C@H](C)[C@H](O)c1ccc(OCCO)cc1 in its proper category? Many thanks.
**Result** group B

**Query** Similarly, COc1ccc([Si](C)(C)[C@@H]2[C@@H](CCO)O[C@]3(C(=O)N(Cc4cccc(N5CCCCC5=O)c4)c4ccccc43)[C@H]2C)cc1 ?
**Result** group C

**Query** What do we get for Cc1ccc(S[C@]2(C(=O)NCCCN(C)C)CC(=O)N(C(C)C)[C@@H]2c2ccc(CO)cc2I)cc1 ?
**Result** group A

**Query** Same question, COCCCNC(=O)[C@@]1(Sc2ccc(C)cc2)CC(=O)N(Cc2ccccc2)[C@@H]1c1ccc(CO)cc1 this time
**Result** group B

**Query** Please answer likewise for C=CCC(OC(C)=O)[C@@H]1[C@@H](N(Cc2ccc(-c3cccc(C(F)(F)F)c3)o2)C(=O)Cc2ccc(OC)cc2)c2cc(OCCCO)ccc2N1C(=O)Cc1ccc(OC)cc1 (stereo not given in full)
**Result** group A
